System: Hs-578T
Test: NCI tumour cell line growth inhibition, 48 h
Activity calls are given as the source filed them. No stated cut-off is given here; in the data, active = GI50 up to about 1.1 µM and inactive = higher.
Catalogue of compounds with associated GI50

Prompt line: Tell me the measured GI50 of C[C@]12CC[C@H]3[C@@H](CCC4=CC(=O)CC[C@@]43C)[C@@H]1CC[C@@H]2OC(=O)c1cccc2c(=O)c3ccccc3[nH]c12 , please.
Response line: 12.1 µM (inactive)

Prompt line: Cool, now Cc1ccc(/N=C2N=C(Cl)/C(=C\c3ccco3)N\2)cc1
Response line: > 100 µM (inactive)

Prompt line: Cool, now COc1ccc2[nH]c3c([N+](=O)[O-])ccc(Cl)c3c(=O)c2c1
Response line: 30.3 µM (inactive)

Prompt line: Cool, now CC1(C)N[PH]2(Nc3ccccc3O2)OC1=O
Response line: > 100 µM (inactive)

Prompt line: Cool, now CCSCCC(N)C(=O)O (stereo unspecified)
Response line: > 100 µM (inactive)

Prompt line: Cool, now CC(=O)O[C@H]1CC[C@@]2(C)C(=CC[C@H]3[C@@H]4C/C(=C\c5ccc(N(C)C)cc5)[C@H](OC(C)=O)[C@@]4(C)CC[C@@H]32)C1
Response line: 3.72 µM (inactive)

Prompt line: Cool, now Cc1nc(O)c2ncn(CCO)c2n1
Response line: > 100 µM (inactive)

Prompt line: Cool, now O=C1CC(NC2CC(=O)c3c(Br)sc(Br)c32)c2c(Br)sc(Br)c21 (stereo unspecified)
Response line: 4.91 µM (inactive)

Prompt line: Cool, now CC(NNC(=O)c1cc[n+]([BH2-]C#N)cc1)C(F)(F)F (stereo unspecified)
Response line: > 100 µM (inactive)

Prompt line: Cool, now O=[N+]([O-])c1cc([As](Br)c2ccc(O)c([N+](=O)[O-])c2)ccc1O
Response line: 2.41 µM (inactive)

Prompt line: Cool, now CCCCNC(=O)c1cc2c(cc1Cl)Sc1nccn1S2(=O)=O
Response line: 57.3 µM (inactive)

Prompt line: Cool, now COc1ccc(/N=N/c2c(C)c(C#N)c(=S)n(C3OC(COC(C)=O)C(OC(C)=O)C(OC(C)=O)C3OC(C)=O)c2C)cc1 (stereo unspecified)
Response line: 23.3 µM (inactive)

Prompt line: Cool, now N=C(N)n1nc2c(c1O)CCCC2
Response line: > 100 µM (inactive)

Prompt line: Cool, now NC(=O)C1=C(O)C[C@@H]2CC3Cc4cccc(O)c4C(=O)C3=C(O)[C@]2(O)C1=O (stereo partly specified)
Response line: 2.81 µM (inactive)

Prompt line: Cool, now O=c1c(Sc2c(SCSc3cnc4ccccc4c3Sc3c[nH]c4ccccc4c3=O)cnc3ccccc23)c[nH]c2ccccc12
Response line: 62.8 µM (inactive)

Prompt line: Cool, now COC(=O)c1ccc(Oc2nc3ccccc3nc2-c2cccs2)cc1
Response line: 19.5 µM (inactive)

====

Catalogue of compounds with associated GI50
System: TK-10
Assay: NCI tumour cell line growth inhibition, 48 h
Active and inactive are the calls of the source. Rule as the data show it: active = GI50 up to about 1.1 µM and inactive = higher.

Some solved entries appear below for comparison.
| COMPOUND | GI50 |
| --- | --- |
| CCCCCC(=O)OC[n+]1ccc2c(C)c3[nH]c4ccccc4c3c(C)c2c1 | 3.08 µM (inactive) |
| COc1ccccc1C(=O)c1ccc2ccccc2c1 | 17.8 µM (inactive) |
| CCOc1ccccc1N1CSc2nnc(-c3ccccc3)n2C1 | > 100 µM (inactive) |
| O=C1COc2cccnc2N1CCCCO | > 100 µM (inactive) |
| COC(=O)[C@H](Cc1ccccc1)NP(=O)(OCCC#N)OCC1OC(n2cc(C)c(=O)[nH]c2=O)CC1N=[N+]=[N-] (some centres not stated) | > 100 µM (inactive) |

Prompt line: # value lookup — system TK-10, readout GI50, item COC(=O)C(N)CCCC(N)C(=O)NC(C)C(=O)NC(CCC(=O)NCCNCCNc1c2ccccc2nc2cccc([N+](=O)[O-])c12)C(N)=O (configuration not stated)
Response line: 16.2 µM (inactive)

Prompt line: Cool, now C=C1c2[nH]c3ccccc3c2C2C(CC)C1CCN2C (configuration not stated)
Response line: 33.3 µM (inactive)

Prompt line: Cool, now COC1=CC(=O)c2c(ccc3ncnc(N)c23)C1=O
Response line: 3.13 µM (inactive)

Reference source: ChEMBL document CHEMBL1201862
